system: Candida albicans A-26; assay: In vivo activity against Candida albicans A-26 infection in mice; parameters: species or system mice infected with Candida albicans A-26; details: Candida albicans, A26, sc, 24 h, mice, subcutaneous, schedule A (40, 20, 15, and 10 mg/kg), 0, 4, 24 hours; read-out: Lowest Active Dose
Numbered stars: 1 amine (or outer) side, 2 acyl side, 3 side chain; on linkers, the order of the positions; unused ones are H or OH. Bridge positions count the residues as written; N and C are the ends. Square brackets hold non-standard residues; d marks the D form. Peptide text beside a SMILES is read from it. * marks the point of attachment. Orn(4R-OH,5R-OH) = O=C([C@H](C[C@@H](O)[C@@H](O)N[*:3])N[*:1])[*:2]; hTyr(3S-OH,4S-OH) = N[C@H](C(=O)O)[C@H](O)[C@@H](O)c1ccc(O)cc1; Pro(3S-OH,4S-Me) = C[C@H]1CN[C@H](C(=O)O)[C@H]1O; X2 = CCCCC/C=C/C/C=C/CCCCCCCC(=O)*; X4 = CCCCCCCC/C=C\CCCCCCCCCC(=O)*; Hyp = O=C(O)[C@@H]1C[C@@H](O)CN1; X6 = CCCCCC/C=C\CCCCCCCCCC(=O)*
VALUE TYPE: minimal effective dose (mg/kg)
Supply the numeric figure in mg/kg, leaving out any unit text.

// below: answered molecules
INSERT INTO assay_data (molecule, measured_number) VALUES
  ('CCCCC/C=C/C/C=C/CCCCCCCC(=O)N[C@H]1C[C@@H](O)[C@@H](O)NC(=O)[C@@H]2[C@@H](O)[C@@H](C)CN2C(=O)[C@H]([C@@H](C)O)NC(=O)[C@H]([C@H](O)[C@@H](O)c2ccc(O)cc2)NC(=O)[C@@H]2C[C@@H](O)CN2C(=O)[C@H]([C@@H](C)O)NC1=O [Example 10] (X2-[Orn(4R-OH,5R-OH)]T[Hyp][hTyr(3S-OH,4S-OH)]T[Pro(3S-OH,4S-Me)]; lactam 1-C)', 10),
  ('CCCCCCCC/C=C\CCCCCCCCCC(=O)N[C@H]1C[C@@H](O)[C@@H](O)NC(=O)[C@@H]2[C@@H](O)[C@@H](C)CN2C(=O)[C@H]([C@@H](C)O)NC(=O)[C@H]([C@H](O)[C@@H](O)c2ccc(O)cc2)NC(=O)[C@@H]2C[C@@H](O)CN2C(=O)[C@H]([C@@H](C)O)NC1=O [Example 14] (X4-[Orn(4R-OH,5R-OH)]T[Hyp][hTyr(3S-OH,4S-OH)]T[Pro(3S-OH,4S-Me)]; lactam 1-C)', 10);

I have this molecule here, CCCCCC/C=C\CCCCCCCCCC(=O)N[C@H]1C[C@@H](O)[C@@H](O)NC(=O)[C@@H]2[C@@H](O)[C@@H](C)CN2C(=O)[C@H]([C@@H](C)O)NC(=O)[C@H]([C@H](O)[C@@H](O)c2ccc(O)cc2)NC(=O)[C@@H]2C[C@@H](O)CN2C(=O)[C@H]([C@@H](C)O)NC1=O [Example 9] (X6-[Orn(4R-OH,5R-OH)]T[Hyp][hTyr(3S-OH,4S-OH)]T[Pro(3S-OH,4S-Me)]; lactam 1-C) , and I need its recorded minimal effective dose. 40

----------
Each entry below lists one item and its recorded minimal effective dose value.
System: Candida albicans A-26
Test: In vivo activity against Candida albicans A-26 infection in mice
Parameters: species or system mice infected with Candida albicans A-26
Conditions: Candida albicans, A26, sc, 24 h, mice, subcutaneous, schedule A (40, 20, 15, and 10 mg/kg), 0, 4, 24 hours; read-out: Lowest Active Dose
Protocol: The results of in vivo tests to evaluate the effectiveness of the compound of Examples 1-16 against an infection caused by Candida albicans A-26 in mice are given in Table V, where activity is measured by the ED50 value (the dose in mg/kg. required to cure 50% of the test animals). […] **As measured by increase in survival time of treated animals versus control, calculated by method of Reed v Mueuch, American J. Hygiene, 27,
Numbered stars: 1 amine (or outer) side, 2 acyl side, 3 side chain; on linkers, the order of the positions; unused ones are H or OH. Bridge positions count the residues as written; N and C are the ends. Square brackets hold non-standard residues; d marks the D form. Peptide text beside a SMILES is read from it. * marks the point of attachment. Orn(4R-OH,5R-OH) = O=C([C@H](C[C@@H](O)[C@@H](O)N[*:3])N[*:1])[*:2]; hTyr(3S-OH,4S-OH) = N[C@H](C(=O)O)[C@H](O)[C@@H](O)c1ccc(O)cc1; Pro(3S-OH,4S-Me) = C[C@H]1CN[C@H](C(=O)O)[C@H]1O; Palmitoleoyl = CCCCCC/C=C\CCCCCCCC(=O)*; Hyp = O=C(O)[C@@H]1C[C@@H](O)CN1; X5 = CCCCCC/C=C/CCCCCCCC(=O)*
Supply the numeric figure in mg/kg, leaving out any unit text.

INSERT INTO results (compound, measured_number) VALUES
  ('CCCCCC/C=C\CCCCCCCC(=O)N[C@H]1C[C@@H](O)[C@@H](O)NC(=O)[C@@H]2[C@@H](O)[C@@H](C)CN2C(=O)[C@H]([C@@H](C)O)NC(=O)[C@H]([C@H](O)[C@@H](O)c2ccc(O)cc2)NC(=O)[C@@H]2C[C@@H](O)CN2C(=O)[C@H]([C@@H](C)O)NC1=O [Example 4] (Palmitoleoyl-[Orn(4R-OH,5R-OH)]T[Hyp][hTyr(3S-OH,4S-OH)]T[Pro(3S-OH,4S-Me)]; lactam 1-C)', 20);

// next entry
I have this compound here, CCCCCC/C=C/CCCCCCCC(=O)N[C@H]1C[C@@H](O)[C@@H](O)NC(=O)[C@@H]2[C@@H](O)[C@@H](C)CN2C(=O)[C@H]([C@@H](C)O)NC(=O)[C@H]([C@H](O)[C@@H](O)c2ccc(O)cc2)NC(=O)[C@@H]2C[C@@H](O)CN2C(=O)[C@H]([C@@H](C)O)NC1=O [Example 3] (X5-[Orn(4R-OH,5R-OH)]T[Hyp][hTyr(3S-OH,4S-OH)]T[Pro(3S-OH,4S-Me)]; lactam 1-C) , and I need its recorded minimal effective dose. 20
